The reported numbers originate from the supplement of paper PMC4121296.

- Test system: Danio rerio embryo (fli1:egfp)
- assay.info: intersegmental vessel area normalized to body length at 72 hpf (ISV area / body length (normalized units)); higher = more vessel area
- run.parameters: 0.78 µM; exposure: 5-72 hpf
recorded.endpoint: intersegmental vessel area normalized

The following compounds have reported results that may help.
// sample COC(=O)N(C(=O)N1CO[C@@]2(C(=O)OC)Cc3cc(Cl)ccc3C2=N1)c1ccc(OC(F)(F)F)cc1 , its intersegmental vessel area normalized was 80.1

// sample C[C@@]1(c2ccc(Oc3ccccc3)cc2)OC(=O)N(Nc2ccccc2)C1=O (racemic) , its intersegmental vessel area normalized was 80

// sample CCOC(=O)COc1cc(-c2nn(C)c(OC(F)F)c2Cl)c(F)cc1Cl , its intersegmental vessel area normalized was 81.6

Here is another compound to look at.
// sample Cc1nn(-c2cc(NS(C)(=O)=O)c(Cl)cc2Cl)c(=O)n1C(F)F , its intersegmental vessel area normalized was 78.9
